TGI for assorted molecules
Test system: HOP-92 NSCLC
Procedure Details: NCI tumour cell line growth inhibition, 48 h
Observable: TGI

1. COc1cc(OC)cc(-c2cncn2-c2ccc(-c3nc4cc(OC)c(OC)c(OC)c4s3)cc2)c1; > 100 µM
2. C=C1N(C)c2ccc(Cl)cc2C1(C)C; 22.9 µM
3. COC1(C)C=NCC(C)(C)NC(=O)C(C)(OC)C=NCC(C)(C)NC1=O (stereo not drawn); > 10 µM
4. CCc1ccc(Nc2cc(C)nc3nc(C)nn23)cc1; > 100 µM
5. O=c1cccc(C#CC#C/C=C/CO)o1; 5.85 µM
6. CCNCCNC(=O)c1ccc(Br)cc1; > 100 µM
7. S=C(N/N=C(/c1ccccc1)c1ccccn1)Nc1cccc(Cl)c1; 13 µM
8. CN1CCCCC1CCN1c2ccccc2Sc2ccc(S(C)=O)cc21 (stereo not drawn); > 100 µM
